- test details: Hygroscopicity test: weight gain of solid sample in humidity chamber at RH=80%
- Type: physicochemical
- test conditions: RH=80%, T=20±2° C., during 24 hrs

{"molecule": "CCOC(=O)[C@@H](N)Cc1ccc(O)c(O)c1.O=P(O)(O)O [Example 11, LDEE Phosphate]", "weight gain in hygroscopicity test": "6.4%"}
{"molecule": "CCOC(=O)[C@@H](N)Cc1ccc(O)c(O)c1.O=C(O)C(O)C(O)C(=O)O [Example 5, LDEE Hydrogen L(+)Tartrate]", "weight gain in hygroscopicity test": "10.1%"}
{"molecule": "CCCCCCCC(=O)O.CCOC(=O)[C@@H](N)Cc1ccc(O)c(O)c1 [Example 19, LDEE Octanoate]", "weight gain in hygroscopicity test": "0.22%"}
{"molecule": "CCOC(=O)[C@@H](N)Cc1ccc(O)c(O)c1.O=C(O)[C@@H](O)c1ccccc1 [Example 15, LDEE S(+)Mandelate]", "weight gain in hygroscopicity test": "4.02%"}
{"molecule": "CCO.CCOC(=O)[C@@H](N)Cc1ccc(O)c(O)c1.CCOC(=O)[C@@H](N)Cc1ccc(O)c(O)c1.O=C(O)CCCCC(=O)O [Example 21, LDEE Adipate Ethanolate]", "weight gain in hygroscopicity test": "5.25%"}
{"molecule": "CCOC(=O)[C@@H](N)Cc1ccc(O)c(O)c1.CS(=O)(=O)O [Example 3, LDEE Mesylate]", "weight gain in hygroscopicity test": "17.5%"}
{"molecule": "CCOC(=O)[C@@H](N)Cc1ccc(O)c(O)c1.O=C(O)C(O)C(O)C(=O)O [Example 6, LDEE D(−)Tartrate]", "weight gain in hygroscopicity test": "6.7%"}
{"molecule": "CCO.CCOC(=O)[C@@H](N)Cc1ccc(O)c(O)c1.O=C(O)/C=C\\C(=O)O [Example 28, LDEE Maleate Ethanolate]", "weight gain in hygroscopicity test": "3.1%"}
{"molecule": "CCOC(=O)C(N)Cc1ccc(O)c(O)c1.O=C(O)C(O)c1ccccc1 (stereo not drawn) [Example 17, LDEE R(−)Mandelate]", "weight gain in hygroscopicity test": "5.4%"}

* * *

- test details: pKa and delta pKa (pKa LDEE − pKa acid)
- Assay type: physicochemical
// values below are reported delta pKa pKaLDEE − pKaacid (first value)
quantity: delta pKa pKaLDEE − pKaacid (first value)

{"molecule": "CCOC(=O)[C@@H](N)Cc1ccc(O)c(O)c1.O=C(O)CC(O)(CC(=O)O)C(=O)O [Example 13, LDEE Citrate]", "reported value": 4.11}
{"molecule": "CCOC(=O)[C@@H](N)Cc1ccc(O)c(O)c1.CCOC(=O)[C@@H](N)Cc1ccc(O)c(O)c1.O.O.O=C(O)CCC(=O)O [Example 23, LDEE Succinate Dihydrate]", "reported value": 3.08}
{"molecule": "CCO.CCOC(=O)[C@@H](N)Cc1ccc(O)c(O)c1.CCOC(=O)[C@@H](N)Cc1ccc(O)c(O)c1.O=C(O)CCC(=O)O [Example 22, LDEE Succinate Ethanolate]", "reported value": 3.08}
{"molecule": "CCOC(=O)[C@@H](N)Cc1ccc(O)c(O)c1.O=C(O)C(O)C(O)C(=O)O [Example 5, LDEE Hydrogen L(+)Tartrate]", "reported value": 4.26}
{"molecule": "CCOC(=O)[C@@H](N)Cc1ccc(O)c(O)c1.O=C(O)C(O)C(O)C(=O)O [Example 4, LDEE L(+)Tartrate]", "reported value": 4.26}
{"molecule": "CCOC(=O)C(N)Cc1ccc(O)c(O)c1.O=C(O)C(O)C(O)C(=O)O (mixture of isomers) [Example 7, LDEE (LD)Tartrate]", "reported value": 4.26}
{"molecule": "CCOC(=O)[C@@H](N)Cc1ccc(O)c(O)c1.O=C(O)c1ccccc1 [Example 8, LDEE Benzoate]", "reported value": 3.03}
{"molecule": "CCO.CCOC(=O)[C@@H](N)Cc1ccc(O)c(O)c1.CCOC(=O)[C@@H](N)Cc1ccc(O)c(O)c1.O=C(O)CCCCC(=O)O [Example 21, LDEE Adipate Ethanolate]", "reported value": 2.81}
{"molecule": "CCOC(=O)[C@@H](N)Cc1ccc(O)c(O)c1.CCOC(=O)[C@@H](N)Cc1ccc(O)c(O)c1.O.O.O=C(O)/C=C/C(=O)O [Example 25, LDEE Fumarate Dihydrate]", "reported value": 4.21}
{"molecule": "CCO.CCOC(=O)[C@@H](N)Cc1ccc(O)c(O)c1.O=C(O)/C=C\\C(=O)O [Example 28, LDEE Maleate Ethanolate]", "reported value": 5.35}
{"molecule": "CCOC(=O)[C@@H](N)Cc1ccc(O)c(O)c1 [LDEE, L-DOPA ethyl ester]", "reported value": 0}
{"molecule": "CCOC(=O)[C@@H](N)Cc1ccc(O)c(O)c1.O=C(O)[C@@H](O)c1ccccc1 [Example 15, LDEE S(+)Mandelate]", "reported value": 3.4}

These entries and their values trace back to patent US6696600B2.
